# method_summary: melting temperature; fluorescence melt of hairpins on a sequencing array, two-state fit, raised by 9.35 °C to match UV melts
# protocol_conditions: sodium 0.088 M
Lab note: cut-off is 50 °C. Strictly less in Tm is fulfilled. Exactly 50 °C or more is not fulfilled.

{"columns": ["polymer_sequence", "answer_label"],
 "data": [
  ["GTTAACGGAAACGTTAAC (((((((....)))))))", "not fulfilled"],
  ["GGCAACGAAAGTTAGCC ((((((....))).)))", "not fulfilled"],
  ["GGATTCGAAAGAATTCC ((((((....))).)))", "fulfilled"],
  ["GATCCAGCAGTGGATC ((((((....))))))", "not fulfilled"],
  ["GAGGGCCGAAAGGCCTC (((.(((....))))))", "not fulfilled"],
  ["GGGGGTCGAAAGACTCCC (((.(((....))).)))", "not fulfilled"],
  ["GGCATTACGAAAGTAGCC (((..(((....))))))", "fulfilled"],
  ["GCCGGCGAAAGCCCTGGC ((((((....)))..)))", "not fulfilled"],
  ["GCGCTTCGAAAGAAACGC (((.(((....))).)))", "not fulfilled"],
  ["GCGTACGAAAGTATCCGC ((((((....)))..)))", "fulfilled"],
  ["GATCGGGCTACCGATC ((((((....))))))", "not fulfilled"],
  ["GGATGCGAAAGCAGTCC ((((((....))).)))", "not fulfilled"]
]}

---

folding enthalpy for assorted sequences
# method_summary: folding enthalpy; higher = less favourable; fluorescence melt of hairpins on a sequencing array, two-state fit
# protocol_conditions: sodium 0.088 M

{"columns": ["polymer_sequence", "result_unit", "folding enthalpy"],
 "data": [
  ["GACAGCGAAAGCTCAGTC ((((((....)))..)))", "kcal/mol", -11.5],
  ["GCCATCGAAAGATCGGGC ((((((....)))..)))", "kcal/mol", -25.1],
  ["GATTTGACGAAAGTCATC (((..(((....))))))", "kcal/mol", -8.24],
  ["GTTAGAGGAAACTCTAGC (.(((((....))))).)", "kcal/mol", -23.1],
  ["GGCGAGGGAAACCCCGCC ((((.((....)).))))", "kcal/mol", -46.8],
  ["GGTATGGGAAACCGTACC ((((.((....)).))))", "kcal/mol", -38.5],
  ["GCTACGCGAAAGCCAAGC (((..((....))..)))", "kcal/mol", -13.3],
  ["GATCAGGACACTGATC ((((((....))))))", "kcal/mol", -45.4],
  ["GTCAAACCGAAAGGTGAC (((..(((....))))))", "kcal/mol", -21.3],
  ["CGCTACGGAAACGTGCG (((.(((....))))))", "kcal/mol", -33.2],
  ["GGGCTGACGAAAGTCCCC (((..(((....))))))", "kcal/mol", -18.1],
  ["GTTTTGCGAAAGCACAAC (((.(((....))).)))", "kcal/mol", -28.1]
]}

---

# method_summary: melting temperature; fluorescence melt of hairpins on a sequencing array, two-state fit, raised by 9.35 °C to match UV melts
# protocol_conditions: sodium 0.088 M

{"columns": ["polymer_sequence", "Tm [°C]"],
 "data": [
  ["GTGCATGAAAATGCAC ((((((....))))))", 67],
  ["GGGATCGCGAAAGCGCCC (((..(((....))))))", 40.6],
  ["GGGGGCGGAAACACCCCC (((((.(....).)))))", 56.9],
  ["GTTAGTGGAAACGTTAAC ((((..(....)..))))", 27.6],
  ["GGTAGTGGAAACACCACC (((.(((....))).)))", 40],
  ["GTGATAGGAAACTACCAC (((.(((....))).)))", 33.5],
  ["GATCGTAGGAACGATC ((((((....))))))", 52.4],
  ["GGCACGGGAAACCACGCC (((..((....))..)))", 46.2],
  ["GTTCTCGAAAGAGTCAAC ((((((....)))..)))", 23.2],
  ["GTCGGTCCGAAAGGAGAC (((..(((....))))))", 36],
  ["GTTGAGTCGAAAGACAAC (((..(((....))))))", 31],
  ["GCTCAGCGAAAGCTCGGC ((..(((....)))..))", 39.5],
  ["GGATCGGGAAACTGATCC (((((.(....).)))))", 52.4],
  ["GATCTGCAGCAGATC ((((((...))))))", 49.2],
  ["GTTCTGGGAAACCAGAAC (((((((....)))))))", 60.5],
  ["GATCTCAACAGAGATC ((((((....))))))", 54.9],
  ["GGTTGGCGAAAGCCTACC (((.(((....))).)))", 59.6],
  ["GTATGCGAAAGCAAGTAC ((((((....)))..)))", 26.1],
  ["GCTCTCGAAAGAGATAGC ((((((....)))..)))", 41.8],
  ["GATGGCCGAAAGGCTATC (((.(((....))).)))", 57.5],
  ["GCACAGTCGAAAGACTGC (((..(((....))))))", 39.3],
  ["GGTGTACGAAAGTATACC (((.(((....))).)))", 53.3],
  ["GATCAGTATTCTGATC ((((((....))))))", 51],
  ["GCATAGGGAAACCTATGC (((((((....)))))))", 61.7],
  ["GATCAGTGGCCTGATC ((((((....))))))", 50.6],
  ["CGAGCGGAAACGCATCG ((((((....))).)))", 48.5],
  ["GAACAGCGAAAGCTATTC (((.(((....))).)))", 34.7],
  ["GTAGTAGGAAACTATTAC (((.(((....))).)))", 29.9],
  ["GCGATGTATCGC ((((....))))", 56.7],
  ["CGCGGACTTCTCCGCG ((((((....))))))", 65.9],
  ["GCTTTCGAAAGAAGAAGC ((((((....)))..)))", 32.1],
  ["GAGAACGAAAGTTACTC ((((((....))).)))", 31.1],
  ["GATCCCGGAAACGAGATC ((((.((....)).))))", 41.7],
  ["GCCACTCGAAAGAGAGGC (((.(((....))).)))", 60],
  ["GCAATGCGAAAGCGCTGC (((..((....))..)))", 49.2],
  ["GCGCGGCGAAAGCGTCGC (((..((....))..)))", 63.2],
  ["CTACGGAAACGTAG (((((....)))))", 49.4],
  ["GTGAAAACGAAAGTTCAC (((..(((....))))))", 38.4],
  ["GTGCAACGAAAGTTACAC (((.(((....))).)))", 44.9],
  ["GTGAACGGAAACGTTTAC ((.((((....)))).))", 46.9],
  ["GGTGCACGAAAGTGGACC (((.(((....))).)))", 65.7],
  ["GTTCGACGAAAGTCAAC (((.(((....))))))", 36.8],
  ["GTCCTAGGAAACTAGGGC (.(((((....))))).)", 49.4],
  ["GATCAATCACTTGATC ((((((....))))))", 43.2],
  ["GCTACTCCGAAAGGAAGC (((..(((....))))))", 30.1],
  ["GCTTAGCGAAAGCAAGGC ((.(.((....)).).))", 38.1],
  ["GCGAACCATCGC ((((....))))", 47.7],
  ["GGTCCAGGAAACTGGGTC (..((((....))))..)", 39.5],
  ["GATCATCTAATGATC ((((((...))))))", 47.2],
  ["CGTGCGGAAACGCGACG ((((((....))).)))", 55.1]
]}
